- study target: T1, Ala mutant having 3-amino acid substitution, SEQ ID NO: 46 (human)
- T1 peptide: EENMDDAAAQDEMEIGY
- assay details: ELISA, peptide on plate (10 ug/mL)
Overview of reported absorbance 490 nm/630 nm across a group of binders:

Past entries and their recorded results:
INSERT INTO assay_data (binder, value_reported) VALUES
  ('H7 (antibody, IgG1, V domains shown, Chicken variable regions in mouse chimeric antibody (IgG1) expression vectors; also called anti-PAD4 antibody H7; A11 etc) VH: AVTLDESGGGLQTPGGALSLVCKASGFTFSTYAMGWMRQAPGKGLEYVAAIRNDGSWTGYGAAVKGRATILRDNGQSTVRLQLSNLRAEDTGTYYCAKYTGSSGGSIGAWGHGTEVIVS VL: ASTQPSSVSANPGGTVEITCSGGSGRYYYGWYQQKSPGSAPVTVIYSSTHRPSNIPSRFSGSKSGSTATLTITGVQAEDEAVYFCGTADSSSYVFGAGTTLTVL', '0.044 OD'),
  ('E9 (antibody, IgG1, V domains shown, Chicken variable regions in mouse chimeric antibody (IgG1) expression vectors; also called anti-PAD4 antibody E9; A11 etc) VH: AVTLDESGGGLQTPGGTLSLVCKGSGFTFSSYGMGWMRQAPGKGLEYVAAIRNDGSWTGYGSAVKGRATISRDNGQSTVRLQLNNLRAEDTATYYCAKTSGSSGGSVDAWGHGTEVIVS VL: ASTQPSSVSANLGGTVEITCSGGGRYYYGWYQQKSPGSAPVTVIYANDKRPSDIPSRFSGSKSGSTGTLTITGVQAEDEAVYFCGSAETSSYVFGAGTTLTVL', '0.027 OD'),
  ('G6 (antibody, IgG1, V domains shown, Chicken variable regions in mouse chimeric antibody (IgG1) expression vectors; also called anti-PAD4 antibody G6; A11 etc) VH: AVTLDESGGGLQTPGGALSLVCKASGFTFSSYGMEWVRQAPGKGLEYVAAIRNDGSWTGYGAAVKGRATISRDDGQSTLRLQLNNLRAEDTATYYCAKTTGSSGGSIDAWGHGTEVIVS VL: ASTQPSSVSANLGETVKITCSGGGNYYYGWYQQKSPGSAPVTLIYANDKRPSNIPSRFSGSKSGSTGTLTITGVQAEDEAVYFCGTADTGKYVFGAGTTLTVL', '0.083 OD');

Switching to the query record.
absorbance 490 nm/630 nm measured on A11 (antibody, IgG1, V domains shown, Chicken variable regions in mouse chimeric antibody (IgG1) expression vectors; also called anti-PAD4 antibody A11; A11 etc) VH: AVTLDESGGGLQTPGGALSLVCKASGFDFSSYGMGWMRQAPGKGLEYVAAIRNDGSWTGYGAAVKGHATISRDNGQSTVRLQLNNLRAEDTGTYYCAKTTGSRGGSIDAWGHGTEVIVS VL: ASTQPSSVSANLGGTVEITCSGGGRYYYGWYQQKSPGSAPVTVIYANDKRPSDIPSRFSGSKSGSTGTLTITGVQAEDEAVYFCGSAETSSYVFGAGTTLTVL = 0.043 OD
